PROCEDURE_TEXT: in vitro
MEASUREMENT_PARAMETERS: human, hela cells, % viability
Simple rule here: viability at 28.5 h, 10 µM less than 90% is Condition met, otherwise Condition not met.

Worked set:
# COMPOUND, QUALITATIVE_LABEL
rows = [
    ("CCOc1ccc(CN(C)C(=O)Cn2nc(C(=O)O)c3ccccc3c2=O)cc1", "Condition met"),
    ("CCCC1C2C=CC(C2)C1/C=N/O (stereo not drawn)", "Condition met"),
    ("CCCn1nnn(-c2cc(OCCOCC)c(Cl)cc2Cl)c1=O", "Condition not met"),
]

Here's an entry: CC(C)COc1ccc(-c2nonc2NC(=O)c2cccs2)cc1 . Is its viability at 28.5 h, 10 µM below 90%?
Condition not met

Here's an entry: Cc1cc(/C=C\c2nc(O)c([N+](=O)[O-])c(=O)[nH]2)c(C)n1-c1ccc(C(=O)O)cc1 . Is its viability at 28.5 h, 10 µM below 90%?
Condition not met

Here's an entry: O=C(O)C(Cc1ccccc1)N1C(=O)/C(=C/c2ccc([N+](=O)[O-])cc2)SC1=S (stereo not drawn) . Is its viability at 28.5 h, 10 µM below 90%?
Condition met

The reported measurements were obtained from paper PMC12040169.
